assayRemarks: BBB permeation experiment of fluorescein using BBB Kit (Example 1)
Assay type: in vitro ADME
protocolConditions: rat, fluorescein 1 μM + nano-bubble water (PS80) 2×10^8 bubbles; ultrasound 250 mW/cm^2, 1 MHz, 10 sec; 2 hr; read-out: permeability coefficient (Papp)
endpointLabel: Papp at 2 h, 1 μM (×10⁻⁶ cm/s)
API: value field is a number in ×10⁻⁶ cm/s; no unit string.

For record O=C1OC2(c3ccc(O)cc3Oc3cc(O)ccc32)c2ccccc21 [fluorescein, fluorescein sodium] the listed Papp at 2 h, 1 μM is 10.6

----------
assayRemarks: BBB permeation experiment of fluorescein using BBB Kit, two nano-bubble waters (Example 4)
Type: in vitro ADME
protocolConditions: rat, control: fluorescein 1 μM in D-PBS without nano-bubble water; 2 hr; read-out: permeability coefficient (Papp)
endpointLabel: Papp at 2 h, 1 μM

// field: Papp at 2 h, 1 μM; key: O=C1OC2(c3ccc(O)cc3Oc3cc(O)ccc32)c2ccccc21 [fluorescein, fluorescein sodium] ; value = 1.79 ×10⁻⁶ cm/s

----------
assayRemarks: BBB permeation experiment of fluorescein using BBB Kit, two nano-bubble waters (Example 4)
Format: in vitro ADME
protocolConditions: rat; culture medium A (Reference Example 1 nano-bubble water, 2×10^8 bubbles); fluorescein 1 μM; ultrasound 100 mW/cm^2, 1 MHz, 10 sec; 2 hr; read-out: permeability coefficient (Papp)
endpointLabel: Papp at 2 h, 1 μM (×10⁻⁶ cm/s)
Enter your answer as a number in ×10⁻⁶ cm/s; do not include the unit.

Item: O=C1OC2(c3ccc(O)cc3Oc3cc(O)ccc32)c2ccccc21 [fluorescein, fluorescein sodium] | Papp at 2 h, 1 μM: 11.1

----------
assayRemarks: BBB permeation experiment of fluorescein using BBB Kit (Example 1)
Assay type: in vitro ADME
protocolConditions: rat, fluorescein 1 μM + nano-bubble water (PS80) 2×10^8 bubbles; ultrasound 100 mW/cm^2, 1 MHz, 10 sec; 2 hr; read-out: permeability coefficient (Papp)
endpointLabel: Papp at 2 h, 1 μM (×10⁻⁶ cm/s)
// note: answer is a bare numeric in ×10⁻⁶ cm/s

Sure, the documented Papp at 2 h, 1 μM for O=C1OC2(c3ccc(O)cc3Oc3cc(O)ccc32)c2ccccc21 [fluorescein, fluorescein sodium] is 11.2
